From: patent US8604217B2

Tested on: human myelomonocytic, biphenotypic leukemia MV4-11 cells
Assay: Growth inhibition test (MTS) on MV4-11 cells
Format: cell-based
Details: Homo sapiens, MV4-11, 72 hours, read-out: MV-4-11 ED50
pIC50: −log10 of the molar value.
Catalogue of molecules with associated pIC50

MOLECULE | RESULT_QUALIFIER | pIC50
CC(C)n1c(N2CCNCC2)nc2c(Br)c(Br)c(Br)c(Br)c21 | = | 6.22
Brc1c(Br)c(Br)c2[nH]nnc2c1Br [TBB, 4,5,6,7-tetrabromo-1Hbenzotriazole, reference compound] | < | 5.00
CN(C)c1nc2c(Br)c(Br)c(Br)c(Br)c2[nH]1 [DMAT, reference compound] | = | 5.50
CN1CCCC(Nc2nc3c(Br)c(Br)c(Br)c(Br)c3[nH]2)CC1 (stereo not shown) | = | 6.00
